target: Hexose transporter 1 (Plasmodium falciparum); assay: ST_JUDE_LEISH: Cytotoxicity at 2uM final concentration against transgenic Leishmania Mexicana promastigotes LmPfHT that are glucose transport deficient and complemented with the Plasmodium falciparum hexose transporter. Activity is measured by DNA content using SYBR green in vitro; format: functional
inhibition overview
MEASURE: inhibition (%)

molecule=CC(=O)c1sc(Cc2nc3ccccc3s2)nc1C observed_result=1.15
molecule="COc1cccc(Nc2c(C(N)=O)cnc3ccc(-c4ccc([S+](C)[O-])cc4)cc23)c1 (stereo not given)" observed_result=4.5
molecule=O=C(Nc1ccc(S(=O)(=O)N2CCOCC2)cc1)c1cc(-c2cc(Cl)ccc2O)n[nH]1 observed_result=0.88
molecule="CCCCCOc1ccc(C(O)C(CN2CCCCC2)c2ccccc2)cc1 (stereo not given)" observed_result=4.91
molecule=Nc1cccc(CNCc2cccc(-c3cccc(-c4nc5cc(C(F)(F)F)ccc5[nH]4)c3)c2)c1 observed_result=-0.22

* * *

target: Solute carrier family 2, facilitated glucose transporter member 1 (Homo sapiens); assay: ST_JUDE_LEISH: Cytotoxicity at 2uM final concentration against transgenic Leishmania Mexicana promastigotes LmGLUT1 that are glucose transport deficient and complemented with the human glucose transporter GLUT1. Activity is measured by DNA content using SYBR green in vitro; type: functional
MEASURE: inhibition (%)

molecule="O=C(Nc1cccc(F)c1)N[C@H]1CCN(CCCCCNC(=O)C2CC2c2ccc(Cl)c(Cl)c2)C1 (some centres undefined)" readout_units=% observed_result=4.75
molecule=O=C(/C=C/c1ccc(Cl)c(Cl)c1)NCCCCCN1CCC(NC(=S)Nc2ccc(Cl)c(Cl)c2)CC1 readout_units=% observed_result=4.99
molecule="O=C(Nc1cccc(C(F)(F)F)c1)c1cccc(S(=O)(=O)NC2CCN(CC3CCCCC3)C2)c1 (centres undefined)" readout_units=% observed_result=0.18
molecule="NC1CCN(CCNCc2cccc(-c3ccc(-c4nc5cc(F)ccc5[nH]4)cc3)c2)C1 (centres undefined)" readout_units=% observed_result=7.06
molecule="CCOC(=O)C1=C(C)NC2=C(C(=O)CC(C)(C)C2)C1c1ccc(Br)cc1 (centres undefined)" readout_units=% observed_result=1.77
molecule=Cc1cc(=O)[nH]c(-n2nc(C)cc2NC(=O)C(c2ccccc2)c2ccccc2)n1 readout_units=% observed_result=20.5
molecule=CCNC(=O)Nc1ccc(N(C)c2ccnc(NC3CC3)n2)cc1 readout_units=% observed_result=5.12
molecule=CN(C)Cc1c(O)ccc2[nH]c(-c3cccc(F)c3)nc12 readout_units=% observed_result=2.87
molecule=COc1ccc(Nc2ncc(Cl)c(Nc3cccnc3C(N)=O)n2)cc1N1CCN(C)CC1 readout_units=% observed_result=89.9
molecule="COc1ccc2ncc(F)c(CCN3CC(O)C(CNCc4ccc5c(n4)NC(=O)CS5)C3)c2c1 (centres undefined)" readout_units=% observed_result=1.08
molecule=Cc1ccc2[nH]c(-c3ccc(C=CC(=O)NC4CCN(Cc5ccccc5)CC4)cc3)nc2c1 readout_units=% observed_result=2.64
molecule=COc1cc(NC(=O)/C=C/c2cc3ccccc3n2C)ccc1OCCN(C(C)C)C(C)C readout_units=% observed_result=4.23
molecule=CC(C)CNCc1cccc(-c2cccc(CN(CCCN3CCN(C)CC3)C(=O)NC3CCCCC3)c2)c1 readout_units=% observed_result=0.8
molecule=CC(C)N1CCC(N(Cc2ccc(-c3ccc(Cl)cc3)cc2)C(=O)Cn2c(CCc3cccc(F)c3F)nc(=O)c3ccccc32)CC1 readout_units=% observed_result=6.02
molecule="CN(CCCCCN1CCC(NC(=O)Nc2ccc(Oc3ccccc3)cc2)C1)C(=O)/C=C/c1ccc(Cl)c(Cl)c1 (centres undefined)" readout_units=% observed_result=0
molecule="OC(CN(Cc1ccccc1)Cc1ccccc1)Cn1c2ccc(Cl)cc2c2cc(Cl)ccc21 (centres undefined)" readout_units=% observed_result=-0.34
molecule="COc1cc(Nc2nccc(N3CCC(NC(=O)C4COc5ccccc5O4)C3)n2)cc(OC)c1OC (centres undefined)" readout_units=% observed_result=2.77
molecule=COc1ccc(NC(=O)/C=C/c2ccccc2Cl)cc1OCCN1CCC(N2CCCC2)CC1 readout_units=% observed_result=2.99
molecule=CC1(C)NC(N)=NC(=N)N1OCCCc1ccc(Cl)cc1Cl readout_units=% observed_result=2.76
molecule=FC(F)(F)c1cc(Nc2ccc(Oc3ccccc3)cc2)c2cc(-c3ccncc3)ccc2n1 readout_units=% observed_result=-0.25
molecule="CCCC(C)Nc1nc(C)cc(N[C@@H](CC(C)C)C(=O)NCCc2ccccc2)n1 (some centres undefined)" readout_units=% observed_result=7.28
molecule="O=S(=O)(Nc1cccc(CCN2CCCCC2CCN2CCCC2)c1)c1ccc(-c2ccccc2)cc1 (centres undefined)" readout_units=% observed_result=2.86
molecule="CC(C)c1ccc(NC(=O)NCC2CCCN(CCCCCNC(=O)/C=C/c3ccc(Cl)c(Cl)c3)C2)cc1 (centres undefined)" readout_units=% observed_result=2.73
molecule=COc1cc2c(cc1CCNCCCCNCCc1cc3c(cc1OC)CCCC3)CCCC2 readout_units=% observed_result=99.4
molecule=Cc1ccc(-c2cnc3[nH]cc(-c4ccc(C(=O)O)c(C)c4)c3c2)cc1C readout_units=% observed_result=1.15
molecule="CCN(CC)CCCC(C)Nc1c(-c2ccc(OC)cc2)cnc2ccccc12 (centres undefined)" readout_units=% observed_result=2.85
molecule=CN(Cc1ccc(NC(=O)NC2CCN(C(=O)/C=C/c3ccc(Cl)c(Cl)c3)CC2)cc1)C1CCOCC1 readout_units=% observed_result=1.63
molecule=Fc1ccc2[nH]c(-c3cccc(-c4cccc(CNCc5cnn(-c6ccccc6)n5)c4)c3)nc2c1 readout_units=% observed_result=6.56
molecule=COc1cccc(CNC[C@@H](O)[C@H](Cc2ccccc2)NC(=O)c2cc(OC(C)C)cc(N3CCCCS3(=O)=O)c2)c1 readout_units=% observed_result=0.5
